system: THP-1 cells; assay: TNFα generation assay; assay type: cell-based, human; settings: Homo sapiens, THP-1, THP-1 cells; Table 22; read-out: IC50 in TNFα generation assay
pIC50: −log10 of the molar value.
A collection of molecules and their measured pIC50

Example entries begin here.
{"Molecule": "CC(C)C[C@@H](Nc1nc(Nc2ccc3ncsc3c2)c(C(N)=O)cc1F)C(N)=O", "pIC50": "6.70 to 6.89"}
{"Molecule": "CC[C@@H](Nc1nc(Nc2ccc3c(c2)c(C)nn3C)c(C(N)=O)cc1F)[C@H](C)N", "pIC50": "> 7.19"}
{"Molecule": "Cc1cncc(Nc2nc(N[C@H](C)CN)c(F)cc2C(N)=O)c1", "pIC50": "6.89 to 7.19"}
{"Molecule": "COc1ccc2cc(Nc3nc(N[C@H](C)[C@H](C)N)c(F)cc3C(N)=O)cnc2c1 (racemic)", "pIC50": "> 7.19"}
{"Molecule": "NC(=O)c1cc(F)c(N[C@@H]2CCCC[C@@H]2N)nc1Nc1cncc(N2CCCCC2)c1 (relative stereo)", "pIC50": "6.70 to 6.89"}
{"Molecule": "COCCOc1ccc2cc(Nc3nc(N[C@@H]4CCCC[C@@H]4N)c(F)cc3C(N)=O)cnc2c1 (relative stereo)", "pIC50": "6.70 to 6.89"}

Lab note: next molecule to report on.
What pIC50 appears in the records for this molecule with THP-1 cells? `C[C@H](N)[C@H](Nc1nc(Nc2cncc(F)c2)c(C(N)=O)cc1F)C1CC1` 6.89 to 7.19
